Experiment: Cytotoxicity against human RD cells assessed as reduction in cell viability after 7 days by microscopic method
Format: cell-based
We begin with a simple list: items and their reported CC50 at 168 h.
Response body: numeric value in µM, unit text excluded.

Check out these entries, answers already filled in.
{"SMILES NOTATION": "O=C(Cn1cc(C#Cc2ccc3c4cccc5cccc(c6cccc2c63)c54)c(=O)[nH]c1=O)NCCCCCCO", "CC50 at 168 h [µM]": 38}
{"SMILES NOTATION": "CC(C)(C)C(=O)OCn1c(=O)c(C#Cc2ccc3c4cccc5cccc(c6cccc2c63)c54)cn(CC(=O)NCCO)c1=O", "CC50 at 168 h [µM]": 38}
{"SMILES NOTATION": "CC(C)(C)C(=O)OCn1c(=O)c(C#Cc2ccc3c4cccc5cccc(c6cccc2c63)c54)cn(CC(=O)N(CCO)CCO)c1=O", "CC50 at 168 h [µM]": 14}
{"SMILES NOTATION": "CC(C)(C)C(=O)OCn1c(=O)c(C#Cc2ccc3c4cccc5cccc(c6cccc2c63)c54)cn(CC(=O)NCCCCO)c1=O", "CC50 at 168 h [µM]": 38}
{"SMILES NOTATION": "CCCCNC(=O)Cn1cc(C#Cc2ccc3c4cccc5cccc(c6cccc2c63)c54)c(=O)[nH]c1=O", "CC50 at 168 h [µM]": 76}

Here is the next item to consider.
What value of CC50 at 168 h has been reported for the following molecule? CCCCNC(=O)Cn1cc(C#Cc2ccc3c4cccc5cccc(c6cccc2c63)c54)c(=O)n(COC(=O)C(C)(C)C)c1=O 10

====

System: Tick-borne encephalitis virus
Experiment: Antiviral activity against TBEV Absettarov infected in PEK cells assessed as plaque reduction preincubated for 1 hr followed by overlaying with 1.26% methylcellulose and measured after 6 days by gentian violet staining-based assay
Assay type: functional, organism-based
pEC50: −log10 of the molar value.
Everything with pEC50 lower than 8 is Criterion not met; everything else, including exactly 8, is Criterion met.

These solved cases illustrate the format of a correct answer.
{"SMILES NOTATION": "CC(C)(C)C(=O)OCn1c(=O)c(C#Cc2ccc3c4cccc5cccc(c6cccc2c63)c54)cn(CC(=O)NC[C@H](O)C(C)(C)CO)c1=O", "ANSWER LABEL": "Criterion met"}
{"SMILES NOTATION": "CC(C)(CO)[C@@H](O)CNC(=O)Cn1cc(C#Cc2ccc3c4cccc5cccc(c6cccc2c63)c54)c(=O)[nH]c1=O", "ANSWER LABEL": "Criterion not met"}
{"SMILES NOTATION": "CC(C)(C)C(=O)OCn1c(=O)c(C#Cc2ccc3c4cccc5cccc(c6cccc2c63)c54)cn(CC(=O)NCCCO)c1=O", "ANSWER LABEL": "Criterion met"}
{"SMILES NOTATION": "CC(C)(C)C(=O)OCn1c(=O)c(C#Cc2ccc3c4cccc5cccc(c6cccc2c63)c54)cn(CC(=O)NCCCCO)c1=O", "ANSWER LABEL": "Criterion met"}
{"SMILES NOTATION": "CC(C)(C)C(=O)OCn1c(=O)c(C#Cc2ccc3c4cccc5cccc(c6cccc2c63)c54)cn(CC(=O)NCCCCCCO)c1=O", "ANSWER LABEL": "Criterion not met"}
{"SMILES NOTATION": "O=C(Cn1cc(C#Cc2ccc3c4cccc5cccc(c6cccc2c63)c54)c(=O)[nH]c1=O)NCCCCCO", "ANSWER LABEL": "Criterion not met"}
{"SMILES NOTATION": "O=C(Cn1cc(C#Cc2ccc3c4cccc5cccc(c6cccc2c63)c54)c(=O)[nH]c1=O)NCCO", "ANSWER LABEL": "Criterion met"}
{"SMILES NOTATION": "O=C(Cn1cc(C#Cc2ccc3c4cccc5cccc(c6cccc2c63)c54)c(=O)[nH]c1=O)NCCCCO", "ANSWER LABEL": "Criterion not met"}
{"SMILES NOTATION": "O=C(O)Cn1cc(C#Cc2ccc3c4cccc5cccc(c6cccc2c63)c54)c(=O)[nH]c1=O", "ANSWER LABEL": "Criterion not met"}
{"SMILES NOTATION": "O=c1[nH]c(=O)n([C@@H]2O[C@H](CO)[C@@H](O)[C@@H]2O)cc1C#Cc1ccc2c3cccc4cccc(c5cccc1c52)c43", "ANSWER LABEL": "Criterion not met"}

Quick check: does CC(C)(C)C(=O)OCn1c(=O)c(C#Cc2ccc3c4cccc5cccc(c6cccc2c63)c54)cn(CC(=O)NCCCCCO)c1=O have pEC50 greater than or equal to 8? Criterion met

Check the entry CCCCNC(=O)Cn1cc(C#Cc2ccc3c4cccc5cccc(c6cccc2c63)c54)c(=O)n(COC(=O)C(C)(C)C)c1=O : does pEC50 equal or exceed 8? Criterion not met

pEC50 >= 8 for CC(C)(C)C(=O)OCn1c(=O)c(C#Cc2ccc3c4cccc5cccc(c6cccc2c63)c54)cn(CC(=O)O)c1=O ? Criterion met

Does CC(C)(C)C(=O)OCn1c(=O)c(C#Cc2ccc3c4cccc5cccc(c6cccc2c63)c54)cn(CC(=O)NCCO)c1=O have a reported pEC50 of at least 8? Criterion met

Threshold query (pEC50 >= 8) on CC(C)(C)C(=O)OCn1c(=O)c(C#Cc2ccc3c4cccc5cccc(c6cccc2c63)c54)cn(CC(=O)N(CCO)CCO)c1=O Criterion met
